Assay Target: α4β1 integrin (Homo sapiens, UniProt P05556+P13612)
Construct: a T-cell line, Jurkat, known to express the α4β1 integrin
Sequence (P13612 34-1032): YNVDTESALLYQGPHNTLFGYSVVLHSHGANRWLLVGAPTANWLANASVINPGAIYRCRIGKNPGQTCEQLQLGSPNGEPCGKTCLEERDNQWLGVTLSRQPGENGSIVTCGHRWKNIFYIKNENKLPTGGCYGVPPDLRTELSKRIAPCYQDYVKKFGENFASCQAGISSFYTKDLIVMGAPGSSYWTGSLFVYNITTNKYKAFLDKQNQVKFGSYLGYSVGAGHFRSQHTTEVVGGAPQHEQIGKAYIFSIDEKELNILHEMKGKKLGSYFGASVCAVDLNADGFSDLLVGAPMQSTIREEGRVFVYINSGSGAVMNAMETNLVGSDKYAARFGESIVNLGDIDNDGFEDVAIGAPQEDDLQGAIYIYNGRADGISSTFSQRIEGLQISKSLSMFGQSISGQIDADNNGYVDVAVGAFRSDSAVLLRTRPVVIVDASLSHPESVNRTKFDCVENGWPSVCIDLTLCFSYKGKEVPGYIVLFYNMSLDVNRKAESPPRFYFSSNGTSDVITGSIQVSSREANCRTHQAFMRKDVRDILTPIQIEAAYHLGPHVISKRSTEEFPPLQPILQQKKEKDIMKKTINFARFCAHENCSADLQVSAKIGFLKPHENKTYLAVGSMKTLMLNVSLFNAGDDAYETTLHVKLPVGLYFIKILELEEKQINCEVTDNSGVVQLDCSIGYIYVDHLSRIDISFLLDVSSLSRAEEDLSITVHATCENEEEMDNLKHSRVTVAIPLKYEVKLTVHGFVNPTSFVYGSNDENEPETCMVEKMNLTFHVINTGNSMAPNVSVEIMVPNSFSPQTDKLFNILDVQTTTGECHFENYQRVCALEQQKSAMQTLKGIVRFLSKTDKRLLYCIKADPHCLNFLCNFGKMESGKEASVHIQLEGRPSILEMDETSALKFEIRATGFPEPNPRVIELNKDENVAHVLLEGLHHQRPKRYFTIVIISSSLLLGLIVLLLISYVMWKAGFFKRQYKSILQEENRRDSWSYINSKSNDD
Sequence (P05556 21-798): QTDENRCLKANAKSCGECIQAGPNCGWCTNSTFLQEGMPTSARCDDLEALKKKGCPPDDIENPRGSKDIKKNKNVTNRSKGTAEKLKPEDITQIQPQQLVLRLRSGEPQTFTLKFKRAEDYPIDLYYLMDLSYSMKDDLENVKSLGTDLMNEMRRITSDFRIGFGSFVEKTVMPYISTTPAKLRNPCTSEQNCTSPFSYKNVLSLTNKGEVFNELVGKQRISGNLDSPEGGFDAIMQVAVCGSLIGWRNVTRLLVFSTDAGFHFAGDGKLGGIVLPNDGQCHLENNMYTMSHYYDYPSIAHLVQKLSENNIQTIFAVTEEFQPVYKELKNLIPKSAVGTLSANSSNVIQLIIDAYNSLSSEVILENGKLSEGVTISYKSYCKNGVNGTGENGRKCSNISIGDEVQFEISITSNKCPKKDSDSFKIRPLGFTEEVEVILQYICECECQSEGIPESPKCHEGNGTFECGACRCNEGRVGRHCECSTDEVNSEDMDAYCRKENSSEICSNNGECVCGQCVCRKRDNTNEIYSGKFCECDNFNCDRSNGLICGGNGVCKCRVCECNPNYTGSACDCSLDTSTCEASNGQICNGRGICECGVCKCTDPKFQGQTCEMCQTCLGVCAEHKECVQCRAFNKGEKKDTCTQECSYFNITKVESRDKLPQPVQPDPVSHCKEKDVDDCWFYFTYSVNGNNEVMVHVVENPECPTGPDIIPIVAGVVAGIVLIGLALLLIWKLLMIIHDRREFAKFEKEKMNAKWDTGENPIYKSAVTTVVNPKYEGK
Measurement Notes: Jurkat-Endothelial Cell Adhesion Assay (Jurkat EC)
Conditions: Jurkat cell adhesion to IL-1 stimulated endothelial cell monolayers
Can you tell me IC50 for the items I'm about to list?

// known answers, use as guide
1) O=C(Nc1ccc(C[C@H](NC(=O)N2CCCC(C(=O)O)C2)C(=O)O)cc1)c1c(Cl)cccc1Cl (some centres unmarked) [Example 114]: ≤ 0.8 µM
2) O=C(Nc1ccc(C[C@H](NC(=O)N2CCCC(C(=O)O)C2)C(=O)O)cc1)c1c(Cl)cccc1Cl (some centres unmarked) [Example 116]: ≤ 0.8 µM
3) O=C(Nc1ccc(C[C@H](NC(=O)N2CCCC(C(=O)O)C2)C(=O)O)cc1)c1c(Cl)cccc1Cl (some centres unmarked) [Example 115]: 0.8 to 5 µM
4) O=C(/C=C1/CCCc2c(C(=O)O)cccc21)N[C@@H](Cc1ccc(NC(=O)c2c(Cl)cccc2Cl)cc1)C(=O)O: 5 to 10 µM

Now for the molecule whose IC50 we want.
Observed IC50 on α4β1 integrin (Homo sapiens, UniProt P05556+P13612), entry CC(Sc1ccccc1C(=O)O)C(=O)N[C@@H](Cc1ccc(NC(=O)c2c(Cl)cccc2Cl)cc1)C(=O)O (some centres unmarked) , equals 5 to 10 µM

---

Assay Target: α4β1 (Homo sapiens, UniProt P05556+P13612)
Construct: 100 µl of Jurkat cells (2.5 x 10^6 cells/ml) in DMEM plus BSA
Sequence (P13612 34-1032): as the sequence (P13612 34-1032) above
Sequence (P05556 21-798): as the sequence (P05556 21-798) above
Measurement Notes: Jurkat-CS-1 assay
Conditions: Jurkat cell adhesion to immobilized CS-1 derived peptide
Measurement Kind: IC50

1) O=C(COc1ccc(C(=O)O)cc1)N[C@@H](Cc1ccc(NC(=O)c2c(Cl)cccc2Cl)cc1)C(=O)O: 0.5 to 1 µM

Please go through the list and note IC50 for each compound.
1. CC1(C)[C@@H](C(=O)O)C[C@H]1C(=O)N[C@@H](Cc1ccc(NC(=O)c2c(Cl)cccc2Cl)cc1)C(=O)O
2. O=C(Nc1ccc(CC(NC(=O)C2CCCCC2NC(=O)C2NC(C(=O)O)CS2)C(=O)O)cc1)c1c(Cl)cccc1Cl (centres unmarked)
3. CC(=O)[C@H]1C[C@@H](CC(=O)N[C@@H](Cc2ccc(NC(=O)c3c(Cl)cccc3Cl)cc2)C(=O)O)C1(C)C
4. CC(=O)[C@H]1C[C@@H](C(=O)N[C@@H](Cc2ccc(NC(=O)c3c(Cl)cccc3Cl)cc2)C(=O)O)C1(C)C
5. CC1(C)CC(C(=O)O)CC/C1=C\C(=O)N[C@@H](Cc1ccc(NC(=O)c2c(Cl)cccc2Cl)cc1)C(=O)O (some centres unmarked)
6. CC1(C)[C@@H](C(=O)N[C@@H](Cc2ccc(NC(=O)c3c(Cl)cccc3Cl)cc2)C(=O)O)C[C@H]1C(=O)O
7. O=C(O)CNC(=O)NC1(C(=O)N[C@@H](Cc2ccc(NC(=O)c3c(Cl)cccc3Cl)cc2)C(=O)O)CCCCC1

1: 0.08 to 0.5 µM; 2: 0.08 to 0.5 µM; 3: 0.5 to 1 µM; 4: 0.08 to 0.5 µM; 5: 0.08 to 0.5 µM; 6: 0.08 to 0.5 µM; 7: 0.5 to 1 µM

---

Assay Target: α4β1 integrin (Homo sapiens, UniProt P05556+P13612)
Construct: a T-cell line, Jurkat, known to express the α4β1 integrin
Measurement Notes: Jurkat-Endothelial Cell Adhesion Assay (Jurkat EC)
Conditions: Jurkat cell adhesion to IL-1 stimulated endothelial cell monolayers
For each of the molecules below, state its IC50.

Required: IC50, one value per molecule below.
1. O=C(Nc1ccc(C[C@H](NC(=O)C2(NC(=O)C3NC(C(=O)O)CS3)CC3CCC2C3)C(=O)O)cc1)c1c(Cl)cccc1Cl (stereo partly drawn) [Example 75]
2. CC(=O)[C@@H]1C[C@H](C(=O)N[C@@H](Cc2ccc(NC(=O)c3ccc(Cl)nc3Cl)cc2)C(=O)O)C1(C)C [Example 107]
3. O=C(N[C@@H](Cc1ccc(NC(=O)c2c(Cl)cccc2Cl)cc1)C(=O)O)c1cccc(NC(=O)c2ccccc2C(=O)O)c1 [Example 41]
4. CC1(C)[C@@H](CC(=O)N[C@@H](Cc2ccc(NC(=O)c3c(Cl)cccc3Cl)cc2)C(=O)O)C[C@H]1C(=O)O [Example 93]
5. O=C(O)CC1(CC(=O)NC2(C(=O)N[C@@H](Cc3ccc(NC(=O)c4c(Cl)cccc4Cl)cc3)C(=O)O)CCCCC2)CCCC1 [Example 47]
6. O=C(O)/C=C\C(=O)Nc1cccc(C(=O)N[C@@H](Cc2ccc(NC(=O)c3c(Cl)cccc3Cl)cc2)C(=O)O)c1 [Example 36]
7. O=C(Nc1ccc(CC(NC(=O)C2CCCCC2NC(=O)C2CCOC2)C(=O)O)cc1)c1c(Cl)cccc1Cl (stereo not drawn) [Example 87]

1. ≤ 0.8 µM
2. 0.8 to 5 µM
3. 5 to 10 µM
4. 0.8 to 5 µM
5. 5 to 10 µM
6. 0.8 to 5 µM
7. ≤ 0.8 µM

Please report IC50 for every entry that follows.
1. O=C(Nc1ccc(C[C@H](NC(=O)C2(NC(=O)C3CCCC(C(=O)O)C3)CCCCC2)C(=O)O)cc1)c1c(Cl)cccc1Cl (stereo partly drawn) [Example 52]
2. O=C(NC1(C(=O)N[C@@H](Cc2ccc(NC(=O)c3c(Cl)cccc3Cl)cc2)C(=O)O)CC2CCC1C2)c1cc(O)c2ccccc2n1 (stereo partly drawn) [Example 73]

["0.8 to 5 µM", "0.8 to 5 µM"]
